test: mouse plasma protein binding; format: in vitro ADME
value_type: fraction unbound

P: O=C(Nc1ccccc1)Nc1ccc(-c2ccc(C(=O)[C@@H]3CCC[C@H]3C(=O)O)cc2)cc1
Q: CC1(C)Oc2ncnc(N)c2N=C1c1ccc([C@H]2CC[C@H](CC(=O)O)CC2)cc1
Query: Thinking about recorded fraction unbound values, which is higher, P or Q ? Returns: label corresponding to the selected item.
Result: Q

###

Target: mouse DGAT1 (Mus musculus, UniProt Q9Z2A7)
Sequence (Q9Z2A7 1-498): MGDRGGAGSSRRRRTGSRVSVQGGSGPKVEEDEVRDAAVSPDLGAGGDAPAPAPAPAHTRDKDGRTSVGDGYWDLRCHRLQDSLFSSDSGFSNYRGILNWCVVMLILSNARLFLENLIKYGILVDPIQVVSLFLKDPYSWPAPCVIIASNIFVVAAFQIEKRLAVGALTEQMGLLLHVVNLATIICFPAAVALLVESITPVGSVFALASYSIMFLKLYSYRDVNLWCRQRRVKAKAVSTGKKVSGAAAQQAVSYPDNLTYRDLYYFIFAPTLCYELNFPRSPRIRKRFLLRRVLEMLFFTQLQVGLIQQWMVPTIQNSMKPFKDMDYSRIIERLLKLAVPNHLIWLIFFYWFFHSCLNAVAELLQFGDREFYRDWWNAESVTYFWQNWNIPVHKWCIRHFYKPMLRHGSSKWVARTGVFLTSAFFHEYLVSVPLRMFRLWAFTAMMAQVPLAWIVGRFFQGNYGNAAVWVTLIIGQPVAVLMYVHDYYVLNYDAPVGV
value_type: IC50 (nM)
State the answer as a number, implicitly in nM.

Query: Give the measured IC50 of O=C(Nc1ccccc1)Nc1ccc(-c2ccc(C(=O)[C@@H]3CCC[C@H]3C(=O)O)cc2)cc1 .
Result: 15.5

###

Target sequence: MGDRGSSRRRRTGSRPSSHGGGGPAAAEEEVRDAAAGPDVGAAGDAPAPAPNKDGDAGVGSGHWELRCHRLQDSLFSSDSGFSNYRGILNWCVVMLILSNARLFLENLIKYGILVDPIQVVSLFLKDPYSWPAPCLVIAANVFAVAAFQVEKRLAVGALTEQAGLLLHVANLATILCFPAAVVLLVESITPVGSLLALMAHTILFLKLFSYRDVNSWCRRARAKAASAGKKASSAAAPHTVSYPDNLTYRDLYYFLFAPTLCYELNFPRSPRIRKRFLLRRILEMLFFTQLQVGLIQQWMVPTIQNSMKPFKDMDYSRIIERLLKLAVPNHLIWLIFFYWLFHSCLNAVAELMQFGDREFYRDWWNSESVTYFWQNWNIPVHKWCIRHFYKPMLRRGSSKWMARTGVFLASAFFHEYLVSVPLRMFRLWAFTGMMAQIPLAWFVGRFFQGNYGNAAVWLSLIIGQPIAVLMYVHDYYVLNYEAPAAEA
value_type: pIC50
FYI, pIC50 means -log10 of a concentration in mol per litre.

Query: Can you share its pIC50? I mean this compound: O=C(Nc1ccccc1)Nc1ccc(-c2ccc(C(=O)[C@@H]3CCC[C@H]3C(=O)O)cc2)cc1
Result: 8.08

###

assay: Compound distribution in mice (plasma, skin, intestine) after oral 30 mg/kg; format: in vivo, C57BL/6J mice; conditions: C57BL/6J, mouse, plasma, means ± SD, 3 mice, read-out: C max in plasma
value_type: Cmax (µM)

P: O=C(Nc1ccccc1)Nc1ccc(-c2ccc(C(=O)[C@@H]3CCC[C@H]3C(=O)O)cc2)cc1
Q: CC1(C)Oc2ncnc(N)c2N=C1c1ccc([C@H]2CC[C@H](CC(=O)O)CC2)cc1
Query: Compare Cmax: is it lower for P or for Q ? I would appreciate it if you answered with the label of your choice.
Result: P
(P: 9.1 µM, Q: 240 µM)
